details: in acetone, 303.15 K
Recorded measurements of solubility (mole fraction), one per entry
Keep it simple and answer with nothing but the number.

Query string: Can you look up the measured solubility (mole fraction) of "COc1c(NS(=O)(=O)c2ccc(F)cc2)cc(-c2ccc3ncnc(N4CCOCC4)c3c2)cc1C(N)=O" for me?
Result string: 0.000419

Query string: Another molecule to look at: "COc1c(NS(=O)(=O)c2ccc(F)cc2)cc(-c2ccc3nccc(N4CCOCC4)c3c2)cc1C(N)=O"
Result string: 0.000817

Query string: Another molecule to look at: "COc1c(NS(=O)(=O)c2ccc(C)cc2)cc(-c2ccc3ncnc(N4CCOCC4)c3c2)cc1C(N)=O"
Result string: 0.001
